Biological target: UniProtKB P08253
Sequence (P08253 110-660): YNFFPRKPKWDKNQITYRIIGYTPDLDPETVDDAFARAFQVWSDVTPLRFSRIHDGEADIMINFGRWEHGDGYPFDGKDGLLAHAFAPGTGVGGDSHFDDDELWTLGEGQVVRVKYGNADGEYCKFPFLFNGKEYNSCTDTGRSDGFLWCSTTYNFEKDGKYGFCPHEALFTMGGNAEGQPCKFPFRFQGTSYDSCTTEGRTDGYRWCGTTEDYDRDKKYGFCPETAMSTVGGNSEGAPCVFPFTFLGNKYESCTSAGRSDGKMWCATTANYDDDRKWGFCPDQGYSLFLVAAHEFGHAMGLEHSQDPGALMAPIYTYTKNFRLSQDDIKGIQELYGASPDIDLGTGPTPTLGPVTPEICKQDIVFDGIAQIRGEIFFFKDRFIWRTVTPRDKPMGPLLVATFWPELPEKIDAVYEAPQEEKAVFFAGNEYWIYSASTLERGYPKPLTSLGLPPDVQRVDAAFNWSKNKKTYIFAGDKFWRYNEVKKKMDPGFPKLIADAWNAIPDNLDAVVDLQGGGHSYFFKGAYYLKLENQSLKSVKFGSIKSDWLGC
Experiment: Thiopeptolide hydrolysis assay, MMP-2FL
Format: biochemical
Conditions: thiopeptolide substrate, HEPES pH 7.0, 22° C.
observed_property: IC50 (µM)

CC1(C)SCCN(S(=O)(=O)c2ccc(-c3cccc(Cl)c3)cc2)[C@H]1C(=O)O ... 0.187
CC(=O)c1cccc(-c2ccc(S(=O)(=O)N3CCSC(C)(C)[C@@H]3C(=O)O)cc2)c1 ... 3.4
CC1(C)SCCN(S(=O)(=O)c2ccc(-c3ccc(Cl)s3)cc2)[C@H]1C(=O)O ... 0.024
CCOc1ccc(-c2ccc(S(=O)(=O)N3CCSC(C)(C)[C@@H]3C(=O)O)cc2)cc1 ... 0.0023
COc1ccc(-c2ccc(S(=O)(=O)N3CCSC(C)(C)[C@@H]3C(=O)O)cc2)cc1C=O ... 1.55
CC1(C)SCCN(S(=O)(=O)c2ccc(-c3ccc(Br)cc3)cc2)[C@H]1C(=O)NO ... 0.002
CC1(C)SCCN(S(=O)(=O)c2ccc(-c3ccc(F)cc3F)cc2)[C@H]1C(=O)O ... 0.115
CC1(C)SCCN(S(=O)(=O)c2ccc(-c3cccc(C#N)c3)cc2)[C@H]1C(=O)O ... 6.2

###

target: MMP-9FL (full length Gelatinase B) (Homo sapiens); test: Thiopeptolide hydrolysis assay, MMP-9FL; format: biochemical; conditions: thiopeptolide substrate, HEPES pH 7.0, 22° C.
Sequence (P14780 94-707, species assumed): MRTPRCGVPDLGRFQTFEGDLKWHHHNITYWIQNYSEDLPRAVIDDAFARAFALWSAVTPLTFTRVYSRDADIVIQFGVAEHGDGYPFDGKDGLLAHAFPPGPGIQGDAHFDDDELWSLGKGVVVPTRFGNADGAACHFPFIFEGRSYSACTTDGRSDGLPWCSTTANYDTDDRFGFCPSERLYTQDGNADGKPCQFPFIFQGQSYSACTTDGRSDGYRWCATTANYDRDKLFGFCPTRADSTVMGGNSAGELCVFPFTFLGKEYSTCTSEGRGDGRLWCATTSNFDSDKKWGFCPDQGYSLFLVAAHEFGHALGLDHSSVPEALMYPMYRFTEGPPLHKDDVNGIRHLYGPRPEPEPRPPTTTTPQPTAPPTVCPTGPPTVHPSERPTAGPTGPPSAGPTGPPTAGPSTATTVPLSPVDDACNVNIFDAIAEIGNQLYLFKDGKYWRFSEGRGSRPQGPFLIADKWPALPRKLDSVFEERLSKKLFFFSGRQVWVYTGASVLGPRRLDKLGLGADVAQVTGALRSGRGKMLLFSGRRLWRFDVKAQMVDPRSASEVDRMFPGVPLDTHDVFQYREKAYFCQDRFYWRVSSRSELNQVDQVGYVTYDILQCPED
The entries below come with measured IC50 values attached.
observed_property: IC50 (µM)

CC1(C)SCCN(S(=O)(=O)c2ccc(-c3ccc(Oc4ccccc4)cc3)cc2)[C@H]1C(=O)O [Example 40] ... 2.2
Cc1cc(-c2ccc(S(=O)(=O)N3CCSC(C)(C)[C@@H]3C(=O)O)cc2)ccc1F [Example 51] ... 1
CC1(C)SCCN(S(=O)(=O)c2ccc(-c3cccc(F)c3)cc2)[C@H]1C(=O)O [Example 58] ... 6.3
CC1(C)[C@H](C(=O)O)N(S(=O)(=O)c2ccc(-c3ccc(Br)cc3)cc2)CCS1(=O)=O [Example 3] ... 0.78
CC1(C)SCCN(S(=O)(=O)c2ccc(-c3ccc4ccccc4c3)cc2)[C@H]1C(=O)O [Example 36] ... 0.13
COc1cc(-c2ccc(S(=O)(=O)N3CCSC(C)(C)[C@@H]3C(=O)O)cc2)cc(OC)c1OC [Example 55] ... 59
CC1(C)SCCN(S(=O)(=O)c2ccc(-c3cccc(OC(F)(F)F)c3)cc2)[C@H]1C(=O)O [Example 59] ... 30
CC1(C)SCCN(S(=O)(=O)c2ccc(-c3ccc(Br)cc3)cc2)[C@H]1C(=O)O [Example 1] ... 0.26
CC1(C)SCCN(S(=O)(=O)c2ccc(-c3ccc(-c4ccccc4)c(F)c3)cc2)[C@H]1C(=O)O [Example 53] ... 0.017
CC1(C)SCCN(S(=O)(=O)c2ccc(-c3ccc(-c4ccccc4)cc3)cc2)[C@H]1C(=O)O [Example 38] ... 0.0032
CCc1ccc(-c2ccc(S(=O)(=O)N3CCSC(C)(C)[C@@H]3C(=O)O)cc2)cc1 [Example 47] ... 0.14
CC(=O)c1cccc(-c2ccc(S(=O)(=O)N3CCSC(C)(C)[C@@H]3C(=O)O)cc2)c1 [Example 61] ... 49
CC1(C)SCCN(S(=O)(=O)c2ccc(-c3ccc(Br)cc3)cc2)[C@H]1C(=O)NO [Example 2] ... 0.001
CC1(C)SCCN(S(=O)(=O)c2ccc(-c3ccc(Cl)s3)cc2)[C@H]1C(=O)O [Example 50] ... 1.5
COc1ccc(-c2ccc(S(=O)(=O)N3CCSC(C)(C)[C@@H]3C(=O)O)cc2)cc1C=O [Example 48] ... 25.8
CC1(C)SCCN(S(=O)(=O)c2ccc(-c3ccc(C=O)cc3)cc2)[C@H]1C(=O)O [Example 30] ... 3.6
